# System: Plasmodium falciparum
# assayMethodText: Antimalarial activity against synchronized ring stage of […] Plasmodium falciparum 3D7 infected in human erythrocytes after 48 hrs by Giemsa staining based microscopic analysis
# Assay type: functional, cell-based
# conditionsUsed: 3D7, 48 h
Record form. Attribute: pIC50. Fill in for each entry.
Would you please state pIC50, meaning minus log10 of the concentration in mol/L, as a bare number?

pIC50 on Plasmodium falciparum for O=C(NC1CCCCC1)C(N[C@@H](Cc1ccccc1)C(=O)O)c1ccccc1 (stereo not given in full) is 4.59

Query CC(C)C[C@@H](C(=O)O)N(C(=O)[C@@H](N)Cc1ccccc1)C(C(=O)NCc1ccccc1)c1ccco1 (stereo not given in full) on Plasmodium falciparum; pIC50 returned: 4.74

# lookup: CC(C)C[C@H](NC(=O)[C@@H](O)[C@H](N)Cc1ccccc1)C(=O)O on Plasmodium falciparum, pIC50 = 4.68

// pIC50 (Plasmodium falciparum) for O=C(CN[C@@H](Cc1ccccc1)C(=O)O)NC1CCCCC1 = 4.43

Fill in: Plasmodium falciparum pIC50 for O=C(CN[C@@H](Cc1c[nH]c2ccccc12)C(=O)O)NC1CCCCC1 = 4.60

----------
parameter: pKi
Schema: pKi number; meaning minus log10 of the concentration expressed in molar units.

Short answer on Aminopeptidase N (Sus scrofa) for O=C(CN[C@@H](Cc1c[nH]c2ccccc12)C(=O)O)NC1CCCCC1 , pKi: 4.62

Let me check: O=C(CN[C@@H](Cc1ccccc1)C(=O)O)NC1CCCCC1 , system Aminopeptidase N (Sus scrofa), measured pKi is 4.68

----------
# Tested on: Erythrocyte
# assayMethodText: Hemolytic activity against human erythrocytes at 25 uM measured after 48 hrs
# Type: ADME, cell-based
parameter: Activity

- compound: "CC[C@H](C)[C@H](NC(C(=O)NC1CCCCC1)c1ccccc1)C(=O)O (some centres undefined)"
  parameter: "Activity"
  resultValue: "Non-Toxic"
- compound: "CC(C)C[C@@H](C(=O)O)N(C(=O)[C@@H](N)Cc1ccccc1)C(C(=O)NCC(=O)O)c1ccccc1 (some centres undefined)"
  parameter: "Activity"
  resultValue: "Non-Toxic"
- compound: "CC(C)C[C@@H](C(=O)O)N(C(=O)[C@@H](N)Cc1ccccc1)C(C(=O)NC(C)(C)C)c1ccccc1 (some centres undefined)"
  parameter: "Activity"
  resultValue: "Non-Toxic"
- compound: "CC(C)C[C@H](N)C(=O)N(CC(=O)NCc1ccccc1)[C@H](C(=O)O)C(C)C"
  parameter: "Activity"
  resultValue: "Non-Toxic"
- compound: "CC(C)C[C@@H](C(=O)O)N(CC(=O)NC(C)(C)C)C(=O)[C@@H](N)Cc1ccccc1"
  parameter: "Activity"
  resultValue: "Non-Toxic"
- compound: "CC(C)C[C@@H](C(=O)O)N(C(=O)[C@@H](N)Cc1ccccc1)C(C(=O)NC(C)(C)C)c1cccnc1 (some centres undefined)"
  parameter: "Activity"
  resultValue: "Non-Toxic"

O=C(CN[C@@H](Cc1ccccc1)C(=O)O)NC1CCCCC1 yielded Activity of Non-Toxic

Given item CC(C)C[C@H](NC(C(=O)NC1CCCCC1)c1ccccc1)C(=O)O (some centres undefined) , the value recorded as its Activity is Non-Toxic

# Activity of O=C(CN1CCC[C@H]1C(=O)O)NC1CCCCC1 = Non-Toxic

Briefly, Activity measured for O=C(CN[C@@H](Cc1c[nH]c2ccccc12)C(=O)O)NC1CCCCC1 : Non-Toxic

Value of Activity reported for the compound CC(C)C[C@H](N)C(=O)N(CC(=O)NC(C)(C)C)[C@@H](Cc1ccccc1)C(=O)O is Non-Toxic

Value of measured Activity for the entry COc1ccc(C(N[C@@H](CC(C)C)C(=O)O)C(=O)NC2CCCCC2)cc1OC (some centres undefined) : Non-Toxic

Activity reading for CC(C)C[C@@H](C(=O)O)N(C(=O)[C@@H](N)Cc1ccccc1)C(C(=O)NC(C)(C)C)c1ccco1 (some centres undefined) : Non-Toxic

Consider CC(C)C[C@@H](C(=O)O)N(C(=O)[C@@H](N)Cc1ccccc1)C(C(=O)NCc1ccccc1)c1ccccc1 (some centres undefined) . Its measured Activity is Non-Toxic

compound O=C(NC1CCCCC1)C(N[C@@H](Cc1ccccc1)C(=O)O)c1ccccc1 (some centres undefined) , Activity observed: Non-Toxic

Looking up CC(C)C[C@@H](C(=O)O)N(C(=O)[C@@H](N)Cc1ccccc1)C(C(=O)NCc1ccccc1)c1ccco1 (some centres undefined) , I see its Activity listed as Non-Toxic

Lab book: Activity of CC(C)C[C@H](NC(C(=O)NC1CCCCC1)c1cccnc1)C(=O)O (some centres undefined) noted as Non-Toxic

// Activity lookup, compound = CC(C)C[C@@H](C(=O)O)N(CC(=O)NCc1ccccc1)C(=O)[C@@H](N)Cc1ccccc1 , result: Non-Toxic

According to the records, this compound O=C(NC1CCCCC1)C(c1ccccc1)N1CCC[C@H]1C(=O)O (some centres undefined) displays Activity of Non-Toxic

----------
# Test system: Plasmodium falciparum
# assayMethodText: Antimalarial activity against asynchronized chloroquine-resistant Plasmodium falciparum FcB1/Columbia assessed as reduction in [3H]-hypoxanthine incorporation by measuring parasite growth at 5 uM pretreated for 24 hrs followed by [3H]-hypoxanthine addition after 24 hrs by microbeta scintillation counting analysis relative to control
# Format: functional
# Set-up: scale not given: the % may be the effect or the level left
parameter: Activity

// field: Activity; key: O=C(CN[C@@H](Cc1ccccc1)C(=O)O)NC1CCCCC1 ; value = 84.5 - 99%

Data point: CC(C)C[C@H](NCC(=O)NC1CCCCC1)C(=O)O ; Activity = 97 - 99%

// field: Activity; key: CC[C@H](C)[C@H](NC(C(=O)NC1CCCCC1)c1ccccc1)C(=O)O (some centres not stated) ; value = 84.5 - 92.5%

Activity measured on CC(C)C[C@@H](C(=O)O)N(CC(=O)NCc1ccccc1)C(=O)[C@@H](N)Cc1ccccc1 = 91 - 93.5%

For record CC(C)C[C@H](NC(C(=O)NC1CCCCC1)c1ccccc1)C(=O)O (some centres not stated) the listed Activity is 85.5 - 93%

The molecule listed as CC(C)C[C@H](N)C(=O)N(CC(=O)NC(C)(C)C)[C@@H](Cc1ccccc1)C(=O)O has a reported Activity of 92.5 - 99%

get_value(item= CC[C@H](C)[C@H](NCC(=O)NC1CCCCC1)C(=O)O , readout=Activity) returns 79.5 - 86.5%

Activity measured on O=C(CN[C@@H](Cc1c[nH]c2ccccc12)C(=O)O)NC1CCCCC1 = 83 - 92.5%

// CC(C)C[C@H](N)C(=O)N(CC(=O)NCc1ccccc1)[C@H](C(=O)O)C(C)C : Activity value = 76.5 - 79%

For reference, reported Activity for CC(C)C[C@@H](C(=O)O)N(C(=O)[C@@H](N)Cc1ccccc1)C(C(=O)NCc1ccccc1)c1ccco1 (some centres not stated) stands at 83.5 - 93.5%

Field Activity (entry COc1ccc(C(C(=O)NC(C)(C)C)N(C(=O)[C@@H](N)Cc2ccccc2)[C@@H](CC(C)C)C(=O)O)cc1OC (some centres not stated) ) reads 56 - 99%

For this molecule ( CC(C)C[C@@H](C(=O)O)N(C(=O)[C@@H](N)Cc1ccccc1)C(C(=O)NCc1ccccc1)c1ccccc1 (some centres not stated) ), measured Activity is 65 - 90%

Lab note: CC(C)C[C@@H](C(=O)O)N(C(=O)[C@@H](N)Cc1ccccc1)C(C(=O)NCC(=O)O)c1ccccc1 (some centres not stated) gave Activity of 97 - 99%

Activity recorded for this molecule, CC(C)C[C@@H](C(=O)O)N(C(=O)[C@@H](N)Cc1ccccc1)C(C(=O)NC(C)(C)C)c1cccnc1 (some centres not stated) , is 16 - 99%

Recorded result, CC(C)C[C@@H](C(=O)O)N(C(=O)[C@@H](N)Cc1ccccc1)C(C(=O)NC(C)(C)C)c1ccco1 (some centres not stated) , Activity: 94.5 - 99%

Consider CC(C)C[C@@H](C(=O)O)N(C(=O)[C@@H](N)Cc1ccccc1)C(C(=O)NC(C)(C)C)c1ccccc1 (some centres not stated) . Its measured Activity is 49 - 100%

# molecule CC(C)C[C@@H](C(=O)O)N(CC(=O)NC(C)(C)C)C(=O)[C@@H](N)Cc1ccccc1 ; its Activity = 87.5 - 91.5%

----------
# System: Plasmodium falciparum
# assayMethodText: Inhibition of recombinant Plasmodium falciparum M1 aminopeptidase assessed as residual activity at 20 uM using Ala-AMC as substrate pretreated for 30 mins followed by substrate addition by fluorescence assay relative to control
parameter: Activity (%)
Just the number in %, nothing appended.

For reference, reported Activity for CC[C@H](C)[C@H](NC(C(=O)NC1CCCCC1)c1ccccc1)C(=O)O (stereo partly specified) stands at 96

Item: CC(C)C[C@@H](C(=O)O)N(C(=O)[C@@H](N)Cc1ccccc1)C(C(=O)NCc1ccccc1)c1ccccc1 (stereo partly specified) | Activity: 83

Recorded result, O=C(NC1CCCCC1)C(c1ccccc1)N1CCC[C@H]1C(=O)O (stereo partly specified) , Activity: 100

Given item CC(C)C[C@@H](C(=O)O)N(C(=O)[C@@H](N)Cc1ccccc1)C(C(=O)NCc1ccccc1)c1ccco1 (stereo partly specified) , the value recorded as its Activity is 48

Lab note: measured Activity of CC(C)C[C@H](NC(C(=O)NC1CCCCC1)c1cccnc1)C(=O)O (stereo partly specified) was 94

Lab book: Activity of COc1ccc(C(N[C@@H](CC(C)C)C(=O)O)C(=O)NC2CCCCC2)cc1OC (stereo partly specified) noted as 98
